Test system: HT29 clonogens
Assay: Clonogenic assay (C10), oxic/hypoxic, HT29
Type: cell-based, human
Conditions: concentration to reduce HT29 clonogens to 10% of controls; 4 hr exposure under aerobic conditions
reported.endpoint: Clonogenic C10 HT29 Oxic (µM)
Respond numerically; units are µM and should not be typed.

Value of Clonogenic C10 HT29 Oxic reported for the compound CN(C)CCOc1ccc2[nH]c(C(=O)N3CC(CCl)c4c3cc([N+](=O)[O-])c3ccccc43)cc2c1 (centres unmarked) [Compound R2, reference compound] is 4.8

Value of Clonogenic C10 HT29 Oxic reported for the compound CN(C)CCNS(=O)(=O)c1ccc2c3c(cc([N+](=O)[O-])c2c1)N(C(=O)c1cc2cc(OCCN(C)C)ccc2[nH]1)CC3CCl (centres unmarked) is 6.2

Value of Clonogenic C10 HT29 Oxic reported for the compound CN(C)CCOc1ccc2[nH]c(C(=O)N3CC(CCl)c4c3cc([N+](=O)[O-])c3cc(S(=O)(=O)NCCO)ccc43)cc2c1 (centres unmarked) is 115

Value of Clonogenic C10 HT29 Oxic reported for the compound CN(C)CCOc1ccc2[nH]c(C(=O)N3CC(CCl)c4c3cc([N+](=O)[O-])c3ccc(C(N)=O)cc43)cc2c1 (centres unmarked) is 33
